Test Target: Coagulation factor XI (Homo sapiens, UniProt P03951)
Sequence (P03951 19-387 limits assumed): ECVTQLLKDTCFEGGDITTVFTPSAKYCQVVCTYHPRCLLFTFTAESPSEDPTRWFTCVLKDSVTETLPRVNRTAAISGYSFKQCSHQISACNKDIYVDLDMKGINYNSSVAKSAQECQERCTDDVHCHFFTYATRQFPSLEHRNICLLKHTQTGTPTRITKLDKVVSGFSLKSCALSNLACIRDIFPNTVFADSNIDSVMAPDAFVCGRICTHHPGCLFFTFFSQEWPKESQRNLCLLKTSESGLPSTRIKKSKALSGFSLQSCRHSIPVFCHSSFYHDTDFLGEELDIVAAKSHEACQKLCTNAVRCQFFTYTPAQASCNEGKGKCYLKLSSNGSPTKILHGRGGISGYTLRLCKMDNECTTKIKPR
Sequence (P03951 388-625 limits assumed): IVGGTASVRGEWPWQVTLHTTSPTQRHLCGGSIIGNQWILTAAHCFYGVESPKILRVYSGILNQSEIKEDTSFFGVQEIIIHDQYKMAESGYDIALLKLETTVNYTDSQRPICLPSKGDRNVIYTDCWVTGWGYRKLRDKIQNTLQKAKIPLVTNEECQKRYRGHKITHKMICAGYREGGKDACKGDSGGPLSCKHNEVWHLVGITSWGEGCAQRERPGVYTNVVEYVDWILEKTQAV
*1 amine or outer side, *2 acyl side, *3 side chain or, on linkers, in order; H or OH if unused. Where a SMILES comes first, the peptide text is derived from it. CO = O=C([*:1])[*:2]
Reported IC50 values are given for each entry in this list.
Note: unit µM is implicit; provide only the numeric part.

Compound	IC50, µM
Cc1ccc(C)c(S(=O)(=O)ON2C(=O)c3ccccc3C2=O)c1	0.762

// moving on: another record for IC50
Problem: Respond only with IC50 recorded for CC(C)[C@H](NC(=O)[C@H](CCCNC(=N)N)NC(=O)N[C@@H](Cc1ccccc1)C(=O)O)C(=O)N[C@H](C=O)CCCNC(=N)N ({Phe-CO}-Arg-Val-Arg-aldehyde)
Result: 3.81

###

pIC50: −log10 of the molar value.
// Coagulation factor XI (Homo sapiens) pIC50 records

Molecule	pIC50
Cc1cc(C)c(S(=O)(=O)ON2C(=O)c3ccccc3C2=O)cc1C [MLS000577081]	6.00
O=C(NCc1ccc2c3c(cccc13)C(=O)N2)c1cccs1	< 4.30
Cc1cccc(OCC(=O)NN=Cc2ccccc2C(=O)O)c1 [SMR000372421]	< 4.30
COCC(=O)Nc1ccccc1-c1ccccc1 [N-2-biphenylyl-2-methoxyacetamide]	< 4.30
Cc1cc(/C=C2\SC(=S)N(C)C2=O)c(C)n1-c1cccc(O)c1 [SMR000415846]	< 4.30

Problem: Report value only: pIC50, Coagulation factor XI (Homo sapiens), CCCNC(=O)C1CC(c2ccc(C(F)(F)F)cc2)=NO1 (centres undefined)
Result: 4.85

Problem: Provide Coagulation factor XI (Homo sapiens) pIC50 reading for CCc1nnc(NC(=O)c2ccc(NC(=O)C(C)C)cc2)s1 [SMR000290444] .
Result: < 4.30

Problem: GET pIC50 | system: Coagulation factor XI (Homo sapiens) | item: O=C(Nc1nc(-c2ccccc2)cs1)c1ccc(S(=O)(=O)N2CCc3ccccc32)cc1 [SMR000235796]
Result: < 4.30

Problem: Answer with pIC50 of "Oc1cc(N2CCC(c3nc4ccccc4o3)CC2)c(O)n1-c1ccc(Cl)c(C(F)(F)F)c1" measured for Coagulation factor XI (Homo sapiens).
Result: < 4.30

###

Measured IC50, listed per entry for reference.
Test Target: Coagulation factor XI (Homo sapiens)

As a guide, the following entries are already answered.
Compound	IC50
O=C(O)c1ccc(N=C(NS(=O)(=O)c2ccc(Cl)cc2)c2ccccc2)cc1	> 50 µM
CCN1CCN(CC(=O)Nc2cc(C)on2)CC1	> 50 µM
O=C(Oc1cncc(Cl)c1)c1ccco1	0.741 µM
COc1ccc([N+](=O)[O-])cc1NC(=O)CC1S/C(=N\c2cccc(C)c2C)N(N=Cc2cccc(OC)c2OC)C1=O (stereo not given)	> 50 µM

Problem: # return IC50 of "COc1ccccc1NS(=O)(=O)c1ccc(O)c(C(=O)OCC(=O)c2ccc(Cl)cc2Cl)c1" (system: Coagulation factor XI (Homo sapiens))
Result: > 50 µM

###

Test Target: Coagulation factor XI (Homo sapiens, UniProt P03951)
pIC50: −log10 of the molar value. Where a SMILES comes first, the peptide text is derived from it. The star is where a group is joined. Cbz = O=C(OCc1ccccc1)*
# pIC50 annotations

Please review the following examples before continuing.
Compound	Measured Metric	Result
COc1cc2c(cc1/C=C/[N+](=O)[O-])OCO2	pIC50	< 4.30
Clc1ccccc1Cn1nnc2c(NCCN3CCOCC3)ncnc21	pIC50	< 4.30
CCOC(=O)Cc1csc(NC(=O)CC(C)(C)CC(=O)O)n1	pIC50	< 4.30
C=C(C)CNC(=S)Nc1cccc(N)n1	pIC50	< 4.30
O=C1OC(Nc2ccc(F)c([N+](=O)[O-])c2)c2ccccc21 (stereo unspecified)	pIC50	< 4.30

Problem: Tell me pIC50 reported for "CC(C)NC(=O)CSc1nc(-c2ccccc2)cs1"
Result: < 4.30

Problem: Read off the recorded pIC50 for "CONC(=N)c1nonc1N"
Result: < 4.30

Problem: Identify measured pIC50 corresponding to "Cc1nn(CC(=O)c2ccc(Cl)s2)c(C)c1[N+](=O)[O-]"
Result: < 4.30

Problem: Query pIC50 for CC(C)C(NC(=O)C(Cc1ccccc1)NC(=O)OCc1ccccc1)C(=O)O (stereo not drawn) (Cbz-Phe-Val-OH; configuration not given here)
Result: < 4.30

Problem: Please look at this compound and report its pIC50: "Cn1nnc(CC[N+](C)(C)C)n1"
Result: < 4.30

Problem: Specify measured pIC50 for "S=C(NCCc1ccccc1)Nc1ccc(Br)cn1" .
Result: < 4.30
